measured target: HLA-A*0201 (human)
assay name: inhibition of 125I probe peptide binding to purified HLA
experimental conditions: remark: other sources report otherwise
Label met when relative binding ratio is at or above 0.0008; anything below gets not met.

{"binder": "DLPTQEPALGT [PSA position 136, 11 amino acids]", "label class": "met"}
{"binder": "CARAYSEKVT [Kallikrein position 184, 10 amino acids]", "label class": "met"}
{"binder": "DLPTQEPAL [PSA position 136, 9 amino acids]", "label class": "not met"}
{"binder": "CAGRWTGGKST [PSA position 194, 11 amino acids]", "label class": "met"}
